Biological target: TLR7 (Homo sapiens)
Construct: host or cells: HEK-Blue cells (human HEK) co-expressing TLR7 and an NF-kB/AP1-inducible SEAP reporter
Assay: In vitro human TLR7 binding reporter assay (HEK-Blue, NF-kB/AP1-inducible SEAP)
Assay type: cell-based
Details: activity range symbols
Experimental: In Vitro Human TLR7 and TLR8 Binding Reporter Assays Logarithmically-growing human HEK-Blue cells co-expressing a TLR7 or TLR8 gene and a NF-kB/AP1-inducible SEAP (secreted embryonic alkaline phosphatase; Invivogen, San Diego, CA) reporter gene are added to individual wells of a 384-well plate (15,000 cells per 20 μL per well) and maintained for 24 h at 37° C., 5% CO2. […] All EC50 values (half-maximal effective concentration) are determined using proprietary data analysis software.
pEC50: −log10 of the molar value.
molecules and their reported pEC50

Worked examples follow.
CCN(Cc1nc2c(N)nc3cc(-c4cc[nH]n4)ccc3c2[nH]1)C(=O)OC [Compound 406] | < 4.00
Nc1nc2cc(-c3cccs3)ccc2c2c1nc(CN1CCCC1=O)n2CCO [Compound 469] | < 4.00
COC(=O)CCCn1c(CN2CCCC2=O)nc2c(N)nc3cc(-c4cccnc4)ccc3c21 [Compound 342] | < 4.00
CCN(Cc1nc2c(N)nc3ccc(Br)cc3c2[nH]1)C(C)=O [Compound 194] | < 4.00
CCN(CC)C(=O)N(CC)Cc1nc2c(N)nc3cc(-c4cc[nH]n4)ccc3c2[nH]1 [Compound 454] | < 4.00
Cc1cnn(-c2ccc3c(c2)nc(N)c2nc(CN4CCCC4=O)[nH]c23)c1 [Compound 296] | < 4.00
Nc1nc2cc(Br)ccc2c2[nH]c(CN3CC(c4ccccc4)CC3=O)nc12 (stereo not drawn) [Compound 316] | < 4.00
COC(=O)CCCn1c(CN2CCCC2=O)nc2c(N)nc3ccccc3c21 [Compound 335] | < 4.00

Input line: What value of measured pEC50 is listed for CC(=O)N(C)Cc1nc2c(N)nc3ccccc3c2[nH]1 [Compound 187] ?
Output line: 4.70 to 6.00

Input line: What value of measured pEC50 is listed for CCNCc1nc2c(N)nc3cc(-c4ccn[nH]4)ccc3c2n1CCO [Compound 462] ?
Output line: < 4.00

Input line: What value of measured pEC50 is listed for Nc1nc2cc(-c3ccccc3)ccc2c2[nH]c(CN3CCCC3=O)nc12 [Compound 280] ?
Output line: < 4.00

Input line: What value of measured pEC50 is listed for Nc1nc2cc(C3CCOCC3)ccc2c2[nH]c(CN3CCCC3=O)nc12 [Compound 298] ?
Output line: 4.70 to 6.00

Input line: What value of measured pEC50 is listed for CCN(Cc1nc2c(N)nc3cc(-c4cc[nH]n4)ccc3c2[nH]1)CC(C)C [Compound 453] ?
Output line: < 4.00

----------
Biological target: TLR7 (Homo sapiens, UniProt Q9NYK1)
Construct: host or cells: HEK-Blue cells (human HEK) co-expressing TLR7 and an NF-kB/AP1-inducible SEAP reporter
Sequence (Q9NYK1 27-1049): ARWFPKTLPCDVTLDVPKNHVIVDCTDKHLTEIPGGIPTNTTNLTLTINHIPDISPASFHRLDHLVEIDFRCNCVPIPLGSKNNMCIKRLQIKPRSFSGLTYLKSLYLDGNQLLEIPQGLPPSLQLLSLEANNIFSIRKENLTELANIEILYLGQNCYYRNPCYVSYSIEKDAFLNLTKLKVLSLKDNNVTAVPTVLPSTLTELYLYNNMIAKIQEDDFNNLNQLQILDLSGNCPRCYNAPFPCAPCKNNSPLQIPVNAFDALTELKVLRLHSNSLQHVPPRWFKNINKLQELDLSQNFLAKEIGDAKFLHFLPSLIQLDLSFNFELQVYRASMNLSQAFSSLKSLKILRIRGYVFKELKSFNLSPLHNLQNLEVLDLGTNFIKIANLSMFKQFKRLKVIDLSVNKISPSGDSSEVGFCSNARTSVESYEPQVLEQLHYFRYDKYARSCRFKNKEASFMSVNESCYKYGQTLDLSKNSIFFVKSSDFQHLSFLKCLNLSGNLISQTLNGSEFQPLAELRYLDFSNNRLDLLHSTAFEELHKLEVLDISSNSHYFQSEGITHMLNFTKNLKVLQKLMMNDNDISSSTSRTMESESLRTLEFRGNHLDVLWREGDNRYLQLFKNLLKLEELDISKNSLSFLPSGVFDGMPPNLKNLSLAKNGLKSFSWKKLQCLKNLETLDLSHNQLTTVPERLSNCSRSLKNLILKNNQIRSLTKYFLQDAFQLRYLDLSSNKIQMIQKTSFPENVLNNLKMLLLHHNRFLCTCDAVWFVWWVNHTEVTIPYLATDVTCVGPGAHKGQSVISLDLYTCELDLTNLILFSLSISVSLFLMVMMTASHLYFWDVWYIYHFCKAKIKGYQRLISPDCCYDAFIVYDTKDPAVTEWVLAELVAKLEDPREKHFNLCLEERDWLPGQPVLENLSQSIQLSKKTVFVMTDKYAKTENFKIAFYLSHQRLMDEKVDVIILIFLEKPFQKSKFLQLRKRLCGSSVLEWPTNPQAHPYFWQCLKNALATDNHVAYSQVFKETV
Test: In vitro human TLR7 binding reporter assay (HEK-Blue, NF-kB/AP1-inducible SEAP)
Format: cell-based
Conditions: numeric bounds
pEC50: −log10 of the molar value.
quantity_kind: pEC50

Worked examples follow.
CCN(Cc1nc2c(N)nc3cc(-c4ccc(C)cc4)ccc3c2[nH]1)C(C)=O [Compound 422] | < 5.00
CCOC(=O)N(CC)Cc1nc2c(N)nc3cc(-c4cc[nH]n4)ccc3c2[nH]1 [Compound 436] | < 4.30

We next turn to a different compound, shown below.
Input line: What value of measured pEC50 is listed for N#Cc1ccc(-c2ccc3c(c2)nc(N)c2nc(CN4CCCC4=O)[nH]c23)cc1 [Compound 434] ?
Output line: < 4.52
